Quick list: Bmax per entry.
- assay-target: Adenosine receptor A1 (Homo sapiens)
- run-description: Displacement of [3H]DPCPX from human adenosine A1 receptor expressed in CHO cells assessed for per milligram of protein
- Type: cell-based
observable: Bmax (fmol)

> print(dat)
                                smiles.input  observable  unit.text  test.result
 1  Nc1scc(CN2CCN(c3ccc(Cl)cc3)CC2)c1C(=O)c1ccc(Cl)cc1        Bmax       fmol         3650
 2  Nc1scc(CN2CCN(c3ccc(F)cc3)CC2)c1C(=O)c1ccc(Cl)cc1        Bmax       fmol         3560
 3  Nc1scc(CN2CCN(c3ccc(C(F)(F)F)cc3)CC2)c1C(=O)c1ccc(Cl)cc1        Bmax       fmol         3680
 4  Nc1scc(CN2CCN(Cc3ccccc3)CC2)c1C(=O)c1ccc(Cl)cc1        Bmax       fmol         3420
 5  Cc1ccc(N2CCN(Cc3csc(N)c3C(=O)c3ccc(Cl)cc3)CC2)cc1        Bmax       fmol         3060
 6     Cc1sc(N)c(C(=O)c2cccc(C(F)(F)F)c2)c1C        Bmax       fmol         3340
 7  Nc1scc(CN2CCN(c3ccccn3)CC2)c1C(=O)c1ccc(Cl)cc1        Bmax       fmol         3090
 8  Nc1scc(CN2CCN(C3CCCCC3)CC2)c1C(=O)c1ccc(Cl)cc1        Bmax       fmol         3200
 9  Nc1scc(CN2CCN(c3ccc4c(c3)OCO4)CC2)c1C(=O)c1ccc(Cl)cc1        Bmax       fmol         3190
10  Nc1scc(CN2CCN(c3ccccc3)CC2)c1C(=O)c1ccc(Cl)cc1        Bmax       fmol         3520
11  Nc1scc(CN2CCN(c3ncccn3)CC2)c1C(=O)c1ccc(Cl)cc1        Bmax       fmol         3320
12  N#Cc1ccc(N2CCN(Cc3csc(N)c3C(=O)c3ccc(Cl)cc3)CC2)cc1        Bmax       fmol         3260
13   CN1CCN(Cc2csc(N)c2C(=O)c2ccc(Cl)cc2)CC1        Bmax       fmol         2990
